- Tested on: Streptococcus pyogenes PIU 2548
- method: In vitro antibacterial activity, agar dilution MIC
- Format: cell-based
- measurement.context: Streptococcus pyogenes PIU 2548 (organism code NN); BHI agar, 35-37 °C, 20 to 24 hours; unit assumed
measurement.name: MIC (µg/mL)
Dear colleague, please return just the value in µg/mL, with no unit written.

Would you please look over these solved cases?
CC[C@H]1OC(=O)[C@H](C)C(=O)[C@H](C)[C@@H](O[C@@H]2O[C@H](C)C[C@H](N(C)Cc3cccnc3)[C@H]2O)[C@](C)(OCC=Cc2cnc3ccccc3c2)C[C@@H](C)C(=O)[C@H](C)[C@H]2NC(=O)O[C@@]21C	0.39
CCCN(C)[C@H]1C[C@@H](C)O[C@@H](O[C@@H]2[C@@H](C)C(=O)[C@@H](C)C(=O)O[C@H](CC)[C@@]3(C)OC(=O)N[C@@H]3[C@@H](C)C(=O)[C@H](C)C[C@@]2(C)OCC=Cc2cnc3ccccc3c2)[C@@H]1O	0.1
CC[C@H]1OC(=O)[C@H](C)C(=O)[C@H](C)[C@@H](O[C@@H]2O[C@H](C)C[C@H](N(C)Cc3ccccc3)[C@H]2O)[C@](C)(OCC=Cc2cnc3ccccc3c2)C[C@@H](C)C(=O)[C@H](C)[C@H]2NC(=O)O[C@@]21C	0.2

Name the reported MIC value associated with the molecule CC[C@H]1OC(=O)[C@H](C)C(=O)[C@H](C)[C@@H](O[C@@H]2O[C@H](C)C[C@H](N(C)CC#N)[C@H]2O)[C@](C)(OCC=Cc2cnc3ccccc3c2)C[C@@H](C)C(=O)[C@H](C)[C@H]2NC(=O)O[C@@]21C
0.39

###

- System: Nocardia Asteroides ATCC9970
measurement.name: MIC (µg/mL)
Dear colleague, please return just the value in µg/mL, with no unit written.

Name the reported MIC value associated with the molecule CC[C@H]1OC(=O)[C@H](C)C(=O)[C@H](C)[C@@H](O[C@@H]2O[C@H](C)C[C@H](N(C)CC=Cc3ccccc3)[C@H]2O)[C@](C)(OCC=Cc2cnc3ccccc3c2)C[C@@H](C)C(=O)[C@H](C)[C@H]2NC(=O)O[C@@]21C
0.2

Check CC[C@H]1OC(=O)[C@H](C)C(=O)[C@H](C)[C@@H](O[C@@H]2O[C@H](C)C[C@H](N(C)CC3CC3)[C@H]2O)[C@](C)(OCC=Cc2cnc3ccccc3c2)C[C@@H](C)C(=O)[C@H](C)[C@H]2NC(=O)O[C@@]21C too.
0.2

Check CCOC(=O)CN(C)[C@H]1C[C@@H](C)O[C@@H](O[C@@H]2[C@@H](C)C(=O)[C@@H](C)C(=O)O[C@H](CC)[C@@]3(C)OC(=O)N[C@@H]3[C@@H](C)C(=O)[C@H](C)C[C@@]2(C)OCC=Cc2cnc3ccccc3c2)[C@@H]1O too.
25

###

MIC values recorded for Enterococcus faecium ATCC 8043
Dear colleague, please return just the value in µg/mL, with no unit written.

CC[C@H]1OC(=O)[C@H](C)C(=O)[C@H](C)[C@@H](O[C@@H]2O[C@H](C)C[C@H](N(C)Cc3cccc(O)c3)[C@H]2O)[C@](C)(OCC=Cc2cnc3ccccc3c2)C[C@@H](C)C(=O)[C@H](C)[C@H]2NC(=O)O[C@@]21C [Example 22]	0.1
CC[C@H]1OC(=O)[C@H](C)C(=O)[C@H](C)[C@@H](O[C@@H]2O[C@H](C)C[C@H](N(C)C(C)=O)[C@H]2O)[C@](C)(OCC=Cc2cnc3ccccc3c2)C[C@@H](C)C(=O)[C@H](C)[C@H]2NC(=O)O[C@@]21C [Example 4]	1.56

Would you kindly look at the next entry?
Name the reported MIC value associated with the compound CC[C@H]1OC(=O)[C@H](C)C(=O)[C@H](C)[C@@H](O[C@@H]2O[C@H](C)C[C@H](N(C)CC=Cc3ccccc3)[C@H]2O)[C@](C)(OCC=Cc2cnc3ccccc3c2)C[C@@H](C)C(=O)[C@H](C)[C@H]2NC(=O)O[C@@]21C [Example 17]
0.1

Data origin: patent EP1025114B1
